The following compounds are shown together with reported pIC50 values.
- Tested on: 786-O (renal cell carcinoma) cells
- experiment-description: Cell viability (CellTiter Glo) assay, inhibition of 786-O cell proliferation
- Format: cell-based
- condition: Homo sapiens, 786-0; 786-O cells, 72 hours, CellTiter Glo; read-out: IC50, inhibition of 786-O cell proliferation
pIC50: −log10 of the molar value.

Illustrative cases are given below, each with its answer.
• CCCC[C@H]1Cc2cc(OC)ccc2[C@H](c2ccc(F)cc2)N1C(=O)CO/C(=N\C(C)C)NC(C)C = 5.30 to 6.30
• C[C@@H]1CN(c2ccc(N3C(=O)C4(CCCCC4)c4c(N)nc(COC(=N)N5CCC[C@@H]5C(F)(F)F)nc43)cn2)C[C@H](C)O1 = > 7.00
• CCCC[C@H]1Cc2cc(OC)ccc2[C@H](c2ccc(F)cc2)N1C(=O)CO/C(=N\CCCN(C)C)NCC = < 5.30

For this compound ( CC(C)N(CC(F)(F)F)C(=N)OCc1ncc2c(n1)N(c1ccc(N3CCCCC3)cc1)C(=O)C21CC1 ), measured pIC50 is 6.30 to 7.00

Just for reference, patent US20250304571A1 is where these values come from.
